- tested_system: OsWRKY34 (Oryza sativa, UniProt Q0JBA9 1-250)
- Sequence (Q0JBA9 entry or part of it): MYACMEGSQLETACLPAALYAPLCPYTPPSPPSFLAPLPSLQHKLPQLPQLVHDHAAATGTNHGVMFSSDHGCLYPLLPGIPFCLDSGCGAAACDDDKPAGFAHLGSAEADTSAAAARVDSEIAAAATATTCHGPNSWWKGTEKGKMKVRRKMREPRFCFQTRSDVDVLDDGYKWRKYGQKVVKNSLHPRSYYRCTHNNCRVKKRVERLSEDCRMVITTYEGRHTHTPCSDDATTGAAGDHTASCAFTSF
- protocol_summary: protein-binding microarray (RPBM); PBS, 2% BSA, 51.3 ng/ul salmon testes DNA, 50 uM zinc acetate, 200 nM TF, 25 C, 1 h; high values mean tight binding
- assay_setup: protein: recombinant; tags: N-terminal polyhistidine and DsRed monomer fusion (pET32a); label: CyDye5-dUTP incorporated in the synthesized complementary strand; 3' TTTTT single-stranded linker to array surface; dsDNA, one strand shown
In all, about 68,000 sequences were measured (“fluorescence intensity (a.u.)”: median about 9,100, highest 2% from about 16,000 on). The sample as a whole holds a higher share of the highest values than the screen did.
endpoint_label: binding signal

Qu. API: value(readout=binding signal, system=OsWRKY34 (Oryza sativa, UniProt Q0JBA9 1-250)) for record TAACCAGAGTAAATTTTTGGCCAACTTAAGTGCTTTCATACGGAGTCACCTAGTGCAG
Ans. 9070 fluorescence intensity (a.u.)

Qu. API: value(readout=binding signal, system=OsWRKY34 (Oryza sativa, UniProt Q0JBA9 1-250)) for record CGTCGGGGTTGGGGTTGGGGCTGGGGCCGGCGCCGACGCCCGGAGTCACCTAGTGCAG
Ans. 13400 fluorescence intensity (a.u.)

Qu. API: value(readout=binding signal, system=OsWRKY34 (Oryza sativa, UniProt Q0JBA9 1-250)) for record CACTAATTTTGCCTTTGTGCCTTTTACTATTGCGCATCACCGGAGTCACCTAGTGCAG
Ans. 10200 fluorescence intensity (a.u.)

Qu. API: value(readout=binding signal, system=OsWRKY34 (Oryza sativa, UniProt Q0JBA9 1-250)) for record TTTTTCTCCCCAGATTGCTGTGCACGGATTTGCCGTAAGACGGAGTCACCTAGTGCAG
Ans. 8360 fluorescence intensity (a.u.)

Qu. API: value(readout=binding signal, system=OsWRKY34 (Oryza sativa, UniProt Q0JBA9 1-250)) for record GACGTATCATAGTCTCTGTTTAGATTTCTAGTACTATGATCGGAGTCACCTAGTGCAG
Ans. 9340 fluorescence intensity (a.u.)

Qu. API: value(readout=binding signal, system=OsWRKY34 (Oryza sativa, UniProt Q0JBA9 1-250)) for record TTCTCTTGCTTCCTTTTTGGTCATTTGAGATAGCTTTATCCGGAGTCACCTAGTGCAG
Ans. 10300 fluorescence intensity (a.u.)

Qu. API: value(readout=binding signal, system=OsWRKY34 (Oryza sativa, UniProt Q0JBA9 1-250)) for record CCTCGGCTCCCATCCACTACCGTTTGCTACTCCGGCGCCGCGGAGTCACCTAGTGCAG
Ans. 10600 fluorescence intensity (a.u.)

Qu. API: value(readout=binding signal, system=OsWRKY34 (Oryza sativa, UniProt Q0JBA9 1-250)) for record GTGCGAGCTGCGCCCGTGTGATGTGGGCGGGTGGGTGTTCCGGAGTCACCTAGTGCAG
Ans. 16900 fluorescence intensity (a.u.)

Qu. API: value(readout=binding signal, system=OsWRKY34 (Oryza sativa, UniProt Q0JBA9 1-250)) for record TTGGCGAGCGAGCTGTGTGGTGGTGGTGGTGGGTGAGTGGCGGAGTCACCTAGTGCAG
Ans. 13600 fluorescence intensity (a.u.)

* * *

Consider the following sequences; for each one, report its binding signal.
- tested_system: OsWRKY34 (Oryza sativa, UniProt Q0JBA9 1-250)
- protocol_summary: protein-binding microarray (RPBM); PBS, 2% BSA, 51.3 ng/ul salmon testes DNA, 50 uM zinc acetate, 200 nM TF, 25 C, 1 h; high values mean tight binding
- assay_setup: protein: recombinant; tags: N-terminal polyhistidine and DsRed monomer fusion (pET32a); label: CyDye5-dUTP incorporated in the synthesized complementary strand; 3' TTTTT single-stranded linker to array surface; dsDNA, one strand shown
In all, about 68,000 sequences were measured (“fluorescence intensity (a.u.)”: median about 9,100, highest 2% from about 16,000 on). This excerpt belongs to a sample that is enriched for the highest values.

Qu. Would you kindly share the measured binding signal for AGTACACACCATTTGACATCCTGATTATGTATAGTAATTTCGGAGTCACCTAGTGCAG ?
Ans. 8350 fluorescence intensity (a.u.)

Qu. Would you kindly share the measured binding signal for CCCCAGCCCAGTTGGGCCCAAACTGTCCATTCCAGCCATCCGGAGTCACCTAGTGCAG ?
Ans. 8330 fluorescence intensity (a.u.)

Qu. Would you kindly share the measured binding signal for TCCTCTTCTTCTTCTTCTTCTTCTCGTGGGTGCAAGAAGCCGGAGTCACCTAGTGCAG ?
Ans. 8380 fluorescence intensity (a.u.)

Qu. Would you kindly share the measured binding signal for GACCGCTTCACCCGCCCAATCAAAACCGTCCATCCATCCCCGGAGTCACCTAGTGCAG ?
Ans. 10300 fluorescence intensity (a.u.)

Qu. Would you kindly share the measured binding signal for GGAAAAGAACACCGGTCCATTTTGCAACTATTGTGAAGTTCGGAGTCACCTAGTGCAG ?
Ans. 8220 fluorescence intensity (a.u.)

* * *

Consider the following sequences; for each one, report its binding signal.
- tested_system: OsWRKY34 (Oryza sativa, UniProt Q0JBA9 1-250)
- protocol_summary: protein-binding microarray (RPBM); PBS, 2% BSA, 51.3 ng/ul salmon testes DNA, 50 uM zinc acetate, 200 nM TF, 25 C, 1 h; high values mean tight binding
- assay_setup: protein: recombinant; tags: N-terminal polyhistidine and DsRed monomer fusion (pET32a); label: CyDye5-dUTP incorporated in the synthesized complementary strand; 3' TTTTT single-stranded linker to array surface; dsDNA, one strand shown
In all, about 68,000 sequences were measured (“fluorescence intensity (a.u.)”: median about 9,100, highest 2% from about 16,000 on). The sample as a whole holds a higher share of the highest values than the screen did.

Qu. Would you kindly share the measured binding signal for TTGACACCGTTGACTTTTTAGTACATGTTTGACCGTTCGTCGGAGTCACCTAGTGCAG ?
Ans. 41400 fluorescence intensity (a.u.)

Qu. Would you kindly share the measured binding signal for TCCCCGCGGGCATGCCCGTTGCTGCGGGCGCAGCTCAATTCGGAGTCACCTAGTGCAG ?
Ans. 8280 fluorescence intensity (a.u.)

Qu. Would you kindly share the measured binding signal for TCTGTATATATTACTACTTGCGTTTCTCTTTCTTTCTTCCCGGAGTCACCTAGTGCAG ?
Ans. 11000 fluorescence intensity (a.u.)

Qu. Would you kindly share the measured binding signal for CGGAGGGAGGCGGAGGCGGTGGTGGTGGTGGTGGTGCCGGCGGAGTCACCTAGTGCAG ?
Ans. 12500 fluorescence intensity (a.u.)

Qu. Would you kindly share the measured binding signal for GTACTGGCTTGGCTGGGTCGGGCTCGGGCTGGGCCATGAACGGAGTCACCTAGTGCAG ?
Ans. 8340 fluorescence intensity (a.u.)

Qu. Would you kindly share the measured binding signal for GCCGCATGGTGGTGCTGGTTGGGGTGGTGGTGGTGGCGGCCGGAGTCACCTAGTGCAG ?
Ans. 14800 fluorescence intensity (a.u.)

Qu. Would you kindly share the measured binding signal for CCGAAGCGTCATCGCCGGTGGCCGTATCTTCTGCGTTGACCGGAGTCACCTAGTGCAG ?
Ans. 15300 fluorescence intensity (a.u.)

Qu. Would you kindly share the measured binding signal for TTTAATGTATGGTGCCGTTGACTTTTTTTATCAATATTTGCGGAGTCACCTAGTGCAG ?
Ans. 41200 fluorescence intensity (a.u.)

Qu. Would you kindly share the measured binding signal for GTGGTGGTGGTGGTGGTGGTGGCGGCGGCGGCCGGCCATGCGGAGTCACCTAGTGCAG ?
Ans. 20000 fluorescence intensity (a.u.)

Qu. Would you kindly share the measured binding signal for GCCGTATCTTCTGCGTTGACCAGATCCTTCACTGTCACGCCGGAGTCACCTAGTGCAG ?
Ans. 19200 fluorescence intensity (a.u.)

Qu. Would you kindly share the measured binding signal for AGTTTTTGGTAGTTTAGTTTGATACACCACTTCGTTTGATCGGAGTCACCTAGTGCAG ?
Ans. 18600 fluorescence intensity (a.u.)

Qu. Would you kindly share the measured binding signal for TGGCGAGGAGGTGGTGGTGGTTGTGGTGGGTGCGGCCATGCGGAGTCACCTAGTGCAG ?
Ans. 12100 fluorescence intensity (a.u.)

Qu. Would you kindly share the measured binding signal for ACGCTTGGTGGGGTGGGGTGGTGCTGGTGCCATGAACTGCCGGAGTCACCTAGTGCAG ?
Ans. 22300 fluorescence intensity (a.u.)

Qu. Would you kindly share the measured binding signal for ACGCCGCCGTTGCACTTCTCTGCACGCCATTGATCCGATCCGGAGTCACCTAGTGCAG ?
Ans. 8480 fluorescence intensity (a.u.)

Qu. Would you kindly share the measured binding signal for AAACCATGCGGCGCACGAGCCACTCGCACTCGCACTCGCACGGAGTCACCTAGTGCAG ?
Ans. 9360 fluorescence intensity (a.u.)

Qu. Would you kindly share the measured binding signal for TCCCCATGCCATGCAAAATAAATATCCATATTACCGTTTCCGGAGTCACCTAGTGCAG ?
Ans. 8320 fluorescence intensity (a.u.)

Qu. Would you kindly share the measured binding signal for TTTTAGCACATGTTGACCGTTCGTCTTATTCAAAAAATTTCGGAGTCACCTAGTGCAG ?
Ans. 9160 fluorescence intensity (a.u.)

Qu. Would you kindly share the measured binding signal for GAGGAGAGAGAGAGAGAGTGGTGGTGGTGGTGGTGAGATGCGGAGTCACCTAGTGCAG ?
Ans. 8460 fluorescence intensity (a.u.)

Qu. Would you kindly share the measured binding signal for GTGGTGGTGGTGGTGGTGGTGGTGGTGGTGCACGGCCATGCGGAGTCACCTAGTGCAG ?
Ans. 16400 fluorescence intensity (a.u.)

The measurements presented in this section are drawn from paper PMC7819943.
